Origin of measurements: PubChem BioAssay (NCATS)

tested on: ECU; assay: qHTS profiling for inhibitors of Plasmodium falciparum proliferation (AID 504749); note: nearly all actives have a fitted effect of over 60% in size; settings: P. falciparum in erythrocytes, SYBR Green DNA, 72 h; series mostly up to 28.7 µM
Records with an inconclusive call do not appear. Active and inactive are the calls of the source. Calls come from the whole dose curve; as a rule, active = well fitted inhibition curve with a large enough effect; inconclusive = small, poorly fitted or top-dose-only effect; inactive = flat fitted curve, though single readings scatter.
Outcome field: choose from active, inactive

COMPOUND	CLASS_LABEL
CC[C@@]1(O)C[C@H](O[C@H]2C[C@@H](N(C)C)[C@@H](O[C@H]3C[C@@H](O)[C@@H](O[C@H]4CCC(=O)[C@@H](C)O4)[C@@H](C)O3)[C@@H](C)O2)c2c(cc3c(c2O)C(=O)c2c(O)cccc2C3=O)[C@H]1C(=O)OC	active
CCCCCCCCCCCCCCCC(=O)OC[C@H](O)[C@H]1OC[C@@H](O)[C@@H]1O	inactive
CC1(C)SC2C(NC(=O)C(C(=O)O)c3ccccc3)C(=O)N2C1C(=O)O (stereo unspecified)	inactive
C[C@H](O)[C@@H]1C(=O)N2C(C(=O)O)=C(SCCN=CN)C[C@@H]12	inactive
CCC(C(=O)C(C)C(O)C(C)CCc1ccc(C)c(O)c1C(=O)O)C1OC(CC)(C2CC[C@@](O)(CC)C(C)O2)CC1C (stereo partly specified)	active
Nc1nc2[nH]cc(CCc3ccc(C(=O)NC(CCC(=O)O)C(=O)O)cc3)c2c(=O)[nH]1 (stereo unspecified)	active

Input: Which outcome was entered for the compound CC1C(=O)C(=O)C=CN1C (stereo unspecified) in this test?
Output: inactive

Input: I'd appreciate the recorded outcome for CC(CN1CC(=O)NC(=O)C1)N1CC(=O)NC(=O)C1 (stereo unspecified) from this test.
Output: inactive

###

biological target: Luciferin 4-monooxygenase (Photinus pyralis) (UniProt P08659); test: Biochemical firefly luciferase enzyme assay for NPC (AID 624030);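 note: purified P. pyralis luciferase at 10 nM with luciferin and ATP substrate; 0% = DMSO and -100% = full luciferase inhibition by PTC124 control; nearly all actives have a fitted effect of over 70% in size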; conditions: purified P. pyralis luciferase, luminescence, 5 min; series mostly up to 58.6 µM
Sequence (P08659 whole entry, looked up): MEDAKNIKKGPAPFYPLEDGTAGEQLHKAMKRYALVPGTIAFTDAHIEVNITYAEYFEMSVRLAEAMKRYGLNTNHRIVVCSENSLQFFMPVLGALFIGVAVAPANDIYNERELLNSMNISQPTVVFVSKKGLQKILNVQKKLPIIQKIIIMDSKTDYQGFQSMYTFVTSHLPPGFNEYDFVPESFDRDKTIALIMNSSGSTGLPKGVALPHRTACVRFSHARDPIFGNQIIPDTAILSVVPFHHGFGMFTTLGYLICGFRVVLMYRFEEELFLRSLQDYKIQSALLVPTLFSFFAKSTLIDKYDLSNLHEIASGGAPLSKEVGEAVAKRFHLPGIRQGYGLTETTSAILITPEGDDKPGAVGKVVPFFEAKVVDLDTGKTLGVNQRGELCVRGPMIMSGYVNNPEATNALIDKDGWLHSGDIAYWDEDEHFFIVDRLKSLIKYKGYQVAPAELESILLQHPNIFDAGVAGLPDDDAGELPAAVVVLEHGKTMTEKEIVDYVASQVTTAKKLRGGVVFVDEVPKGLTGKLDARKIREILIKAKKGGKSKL
Results filed as inconclusive are left out. Activity calls are given as the source filed them. Calls follow the shape of the dose curve; as a rule, active = well fitted inhibition curve with a large enough effect; inconclusive = small, poorly fitted or top-dose-only effect; inactive = flat fitted curve, though single readings scatter.
MEASURED_PROPERTY: outcome

SUBSTANCE_SMILES	EXPERIMENTAL_RESULT
CNc1cc(OC)c(C(=O)N[C@@H]2CCN(Cc3ccccc3)[C@H]2C)cc1Cl	inactive
CNC1=CN(O)C(c2ccccc2)=c2cc(Cl)ccc2=N1	inactive
CC(C)OC(=O)c1cc2c(OC[C@@H](O)CNC(C)(C)C)cccc2[nH]1	inactive

###

test: NFAT Signaling Pathway (AID 444); settings: Jurkat NFAT-bla M1, carbachol, beta-lactamase ratio, 5 h; at 17.2 µM (top of the series) unless noted;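 note: carbachol stimulus at about its EC50 of 1 µM final; % is set by controls: 0 for no effect and ±100 for the full control effect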
Results filed as inconclusive are left out. Active and inactive are the calls of the source. Calls follow the shape of the dose curve; as a rule, active = well fitted curve in either direction with a large enough effect (not every such curve was filed as active); inconclusive = small, poorly fitted or top-dose-only effect, or another doubt; inactive = flat fitted curve, though single readings scatter.
MEASURED_PROPERTY: activity change, negative = inhibition

Worked cases, activity change, negative = inhibition given:
COMPOUND	EXPERIMENTAL_RESULT
Cc1cc(=O)oc2cc(OCCSCCN3CCOCC3)ccc12	3.73% (inactive)
CCOC(=O)C(OC(=O)c1sc(=S)n(C)c1C)C(C)=O (stereo not given)	6.69% (inactive)
CCCSC1=C(C#N)C(c2ccc(OC)cc2)C2=C(CC(C)(C)CC2=O)N1 (stereo not given)	-24.7% (inactive)
Cc1ccc(N2C(=O)C3ON(c4ccccc4)C(c4ccncc4)C3C2=O)cc1 (stereo not given)	9.45% (inactive)
CN1CCC2(CC1)C1CN(C)CC=C1C(C#N)=C(N)C2(C#N)C#N (stereo not given)	13.7% (inactive)
CCOC(=O)C1CCCN(c2nc3ccccc3nc2C(C#N)C(=O)OC(C)COC)C1 (stereo not given)	-5.6% (inactive)

Quick one: give me activity change, negative = inhibition for each item below, same order please.
1. CN1CCN(c2c3c(c(C#N)c4nc5ccccc5n24)CCCC3)CC1
2. CCCCCCOc1ccc(N2C(=O)CC(N3CCN(C(=O)c4ccco4)CC3)C2=O)cc1 (stereo not given)

Output:
["0.538% (inactive)", "13.8% (inactive)"]

// each listed compound needs a value for activity change, negative = inhibition
1. Cc1c(NC(=O)C(CC(=O)O)NCc2ccco2)c(=O)n(-c2ccccc2)n1C (stereo not given)
2. CCCCOc1ccccc1C(=O)NCCCC(=O)O
3. CCCCCCCCCC(=O)N[C@@H](CN1CCOCC1)[C@@H](O)c1ccccc1
4. CCCCNC(=O)N1CCOCCOCCN(C(=O)NCCCC)CCOCC1
5. NC(=O)/C(=N\O)c1ccccc1

Output:
5.18% (inactive)
-5.11% (inactive)
1.34% [at 38 µM] (inactive)
4.17% (inactive)
15.2% (inactive)

Respectfully, I request activity change, negative = inhibition for each entry included below.
1. COC(=O)c1ccc(C2/C(=C(/O)c3ccc(OC)cc3)C(=O)C(=O)N2c2cc(C)on2)cc1 (stereo not given)
2. C=CCn1cnc2c(c1=O)c1nc3ccccc3nc1n2-c1ccc(Cl)cc1

Output:
1. -13.5% (inactive)
2. -0.571% (inactive)
